test: Therapeutic index, ratio of EC50 for human THP1 cells to EC50 for intracellular Leishmania donovani MHOM/ET/67/HU3 amastigotes infected in peritoneal macrophages of Mesocricetus auratus; format: cell-based, THP-1; details: read-out: TI
Below: a set of entries, each annotated with reported selectivity ratio.
Result type: selectivity ratio

> print(dat)
                                   molecule        result.type  test.result
1  CCCCCCCCCCCCCCCCOP(=O)([O-])OC1CC[N+](C)(Cc2ccccc2)CC1 (centres undefined)  selectivity ratio        > 220
2  CCCCCCCCCCCCCCCCOP(=O)([O-])OCC[N+]1(C)CCCCC1  selectivity ratio         95.7
3  CCCCCCCCCCCCCCCCOP(=O)([O-])OCC[N+](C)(C)C  selectivity ratio         5.48
4  CCCCCCCCCCCCCCCCCCOP(=O)([O-])OC1CC[N+](CC)(CC)CC1.O.O  selectivity ratio         11.7
